B1: C19orf51 (parent)
chain: FAPQTGARPSETFARFCKSQESAL

Variants of: B1
Assay: protein stability index of a GFP-peptide fusion (GPS, HEK-293T) (PSI 1-6); higher = more stable;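 note: lentivirally expressed fusions sorted by FACS into six bins by GFP to DsRed ratio, PSI derived from sequencing read proportions per bin multiplied by bin number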
Details: c terminus: a fixed tail appended
readout-name: protein stability index
# respond with the number and nothing more

(Q) Fill blank: measured protein stability index of the variant FAPQTGARPSETGARFCKSQESAL [F13G] is ____.
(A) 2
